target of assay: N-terminal Xaa-Pro-Lys N-methyltransferase 1 (Homo sapiens)
measurement description: qHTS Assay for Inhibitors of N-terminal methyltransferase 1 (NTMT1): LOPAC validation of the NTMT1 SAHH-coupled ThioGlo3 Assay (AID 1347143);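 further: SAH from peptide methylation measured as thiol fluorescence via SAHH coupling and ThioGlo3; nearly all actives have a fitted effect of over 70% in size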
measurement setup: recombinant NTMT1, SAHH-coupled ThioGlo3 fluorescence; series mostly up to 114 µM
Records with an inconclusive call do not appear. Activity calls are given as the source filed them. The call rests on the fitted dose curve; in most records, active means well fitted inhibition curve with a large enough effect; inconclusive means small, poorly fitted or top-dose-only effect; inactive means no such curve, though single readings can be large or run the other way.
Possible outcomes: 1 for active, -1 for inactive

entry smiles: O=C(Nc1nc2ccccc2n1CCN1CCOCC1)c1cccc([N+](=O)[O-])c1
assigned label: -1
//
entry smiles: Nc1ccc(S(=O)(=O)Nc2ccnn2-c2ccccc2)cc1
assigned label: -1
//
entry smiles: Cc1oncc1C(=O)Nc1ccc(C(F)(F)F)cc1
assigned label: -1
//
entry smiles: CCOC(=O)C1=C[C@]2(CC)CCCN3CCc4c(n1c1ccccc41)[C@@H]32
assigned label: -1
//
entry smiles: c1ccc([C@H]2CN3CCSC3=N2)cc1
assigned label: -1
//
entry smiles: Cc1[nH]c(=O)c(C#N)cc1-c1ccc2nccn2c1
assigned label: 1
//
entry smiles: C1COC(NC(C2CC2)C2CC2)=N1
assigned label: -1

* * *

measurement description: Quantitative High-Throughput drug screen in 47 multiple myeloma cell lines against the NCATS MIPE library collection: KHM11_PLB cell viability assay (AID 1918962); further: nearly all actives have a fitted effect of over 35% in size
measurement setup: KHM11 myeloma cell viability, CellTiter-Glo ATP luminescence, 48 h; series mostly up to 45.8 µM
From the text: PI: Beverly A. Mock Ph.D. Laboratory of Cancer Biology and Genetics, Center for Cancer Research, National Cancer Institute, National Institute of Health, Bethesda, Maryland […] 5; Detector; 425V; Luminescence; Viewlux PerkinElmer. […] 1. […] Briefly, the corresponding myeloma cell lines were screened in 1,536-well plates with 500 cells, 5-uL per well for inhibition of cell viability (assessed by measuring ATP levels with CellTiterGlo). […]
Results filed as inconclusive are left out. Activity calls are given as the source filed them. Calls follow the shape of the dose curve; as a rule, active = well fitted cell-killing curve with a large enough effect; inconclusive = small, poorly fitted or top-dose-only effect, or effect the other way; inactive = no such curve, though single readings can be large or run the other way.
Possible outcomes: active, inactive

compound: O=C1[C@H](Cc2ccc(O)cc2)N2C(=O)CCN(C(=O)NCc3ccccc3)[C@H]2CN1Cc1cccc2ccccc12
assigned label: active
//
compound: S=C(NCc1ccc2c(c1)OCO2)N1CCN(c2ncnc3c2oc2ccccc23)CC1
assigned label: active
//
compound: CCCC(CCC)C(=O)O
assigned label: inactive
//
compound: CC[C@H](Nc1ncnc2nc[nH]c12)c1nc2cccc(F)c2c(=O)n1-c1ccccc1
assigned label: active
//
compound: CN1CCN(CCCN2c3ccccc3Sc3ccc(C(F)(F)F)cc32)CC1
assigned label: active
//
compound: CC[C@@H](C)[C@H](NC(=O)[C@H](CC1CCCCC1)NC(=O)c1ccno1)C(=O)N1CCC2(CCc3ccccc32)CC1
assigned label: inactive
//
compound: COc1ccc(-c2c(-c3ccc(O)cc3O)n[nH]c2C)cc1
assigned label: inactive
//
compound: NNCCc1ccccc1
assigned label: inactive
//
compound: C#Cc1cccc(Nc2ncnc3cc(OCCOC)c(OCCOC)cc23)c1
assigned label: active
//
compound: CCOc1cc(C(=O)Nc2ccc(Cl)c(-c3nc4ccccc4[nH]3)c2)cc(OCC)c1OCC
assigned label: active
//
compound: CC(C)(C)OC(=O)CN(Cc1ccc(Cl)cc1)Cc1ccc([N+](=O)[O-])s1
assigned label: inactive
//
compound: CC(C)(N)C(=O)N[C@H](COCc1ccccc1)C(=O)N1CCC2(CC1)CN(S(C)(=O)=O)c1ccccc12
assigned label: active
//
compound: COc1ccc([C@@H]2CC(=O)c3c(O)cc(O[C@@H]4O[C@H](CO[C@@H]5O[C@@H](C)[C@H](O)[C@@H](O)[C@@H]5O)[C@@H](O)[C@H](O)[C@@H]4O)cc3O2)cc1O
assigned label: inactive
//
compound: Cc1csc(NC(=O)c2sc3nc4c(c(C(F)(F)F)c3c2N)CCC4)n1
assigned label: inactive
//
compound: CCC(C)n1ncn(-c2ccc(N3CCN(c4ccc(OC[C@H]5CO[C@](Cn6cncn6)(c6ccc(Cl)cc6Cl)O5)cc4)CC3)cc2)c1=O (stereo not given in full)
assigned label: inactive
//
compound: O=C(O)[C@@H](c1ccc(OCc2ccc3ccccc3n2)cc1)C1CCCC1
assigned label: inactive
//
compound: Cc1[nH]c(=O)c(C#N)cc1-c1ccc2nccn2c1
assigned label: inactive
//
compound: Cc1c(CN2CCN(C(=O)C(C)C)CC2)sc2c(N3CCOCC3)nc(-c3cnc(N)nc3)nc12
assigned label: active
//
compound: C1COC(NC(C2CC2)C2CC2)=N1
assigned label: inactive
//
compound: Nc1nc2ccc(OC(F)(F)F)cc2s1
assigned label: inactive
